The entries below are paired with their reported IC50.
Biological target: human thrombin (Homo sapiens, UniProt P00734)
Construct: 1U/ml human thrombin
Assay: Measurement of thrombin inhibition action
Type: biochemical
Conditions: substrate S-2238, 30 minutes incubation, A405
Method: Measurement of thrombin inhibition action 70 μl of the specimen stepwisely diluted with water was mixed with 90 μl of a 100 mM Tris buffer solution (pH 8.4), 20 μl of a 50 mM Tris buffer solution (pH 8.4) of 1U/ml human thrombin, and a 2 mM substrate (Daiichikagaku. S-2238), incubated for 30 minutes, mixed with 50 μl of 50% acetic acid, and then subjected to the measurement of absorbance (A405). […]

Sample answers from the record:
1) COC(=O)c1cc(COc2cccc(CCN)c2)cc(-c2cccc(C(=N)N)c2)c1: > 100 µM
2) COC(=O)c1cc(-c2cccc(C(=N)N)c2)ccc1COc1cccc(CN)c1: > 100 µM
3) COC(=O)c1cc(COc2cccc(CN)c2)cc(-c2cccc(C(=N)N)c2)c1: > 100 µM
4) COC(=O)c1cc(COc2cccc(N)c2)cc(-c2cccc(C(=N)N)c2)c1: > 100 µM
5) COC(=O)c1cc(COc2ccc3c(c2)CN(C(C)=N)C3)cc(-c2cccc(C(=N)N)c2)c1: 10 to 100 µM

Attention now shifts to the item below.
Problem: GET IC50 where system = human thrombin (Homo sapiens, UniProt P00734) and item = COC(=O)c1cc(COc2ccc(C)cc2N)cc(-c2cccc(C(=N)N)c2)c1
Solution: > 100 µM
